Tested on: Hep3B2.1-7 human hepatoma carcinoma cells
Assay: Tumor cell inhibition ratio, CCK-8 kit, Hep3B
Details: read-out: Antiproliferative effect (inhibition ratio) Hep3B
Readout Kind: inhibition at 10 µM
Answer with the number, then the unit.

Examples with answers:
COc1cc2c(cc1OCCCN1CCOCC1)C1=Nc3ccc(F)c(Cl)c3CN1C=N2 [Compound V-23, di-p-toluenesulfonate]: 27.1%
CS(=O)(=O)CCNCc1ccc(-c2ccc3c(c2)C2=Nc4ccc(OCc5cccc(F)c5)c(Cl)c4CN2C=N3)o1: 51.3%
COCCOc1cc2c(cc1OCCOC)C1=Nc3cc(Cl)ccc3CN1C=N2: 52.4%

Record inhibition at 10 µM per entry; entries follow.
1. COCCOc1cc2c(cc1OCCOC)C1=Nc3cccc(NC(C)=O)c3CN1C=N2
2. C#Cc1cccc2c1CN1C=Nc3cc(OCCOC)c(OCCOC)cc3C1=N2.Cl [Compound V-4, hydrochloride trihydrate]
3. C#Cc1cccc2c1CN1C=Nc3cc(OC)c(OC)cc3C1=N2
4. COc1cc2c(cc1OCCCN1CCOCC1)C1=Nc3cc(Cl)ccc3CN1C=N2

1. 57.1%
2. 33.5%
3. 31.9%
4. 40.1%

Record inhibition at 10 µM per entry; entries follow.
1. C#Cc1cccc2c1CN1C=Nc3cc(OC)c(OCCCN4CCOCC4)cc3C1=N2
2. COCCOc1cc2c(cc1OCCOC)C1=Nc3cccc(OC)c3CN1C=N2

1: 28.4%; 2: 31.9%
